system: IGROV1 ovarian; experiment: NCI tumour cell line growth inhibition, 48 h; in the data active = GI50 below about 0.43 µM; inactive = the rest
Labels: y for active, n for inactive

molecule	discrete_label
ClCc1cccc(Cn2cnc3c(NC45CC6CC(CC(C6)C4)C5)ncnc32)c1	n
COc1ccc(/C=N\NC(=O)CN2CCN(c3cc4c(cc3F)c(=O)c(C(=O)N/N=C/c3ccc(OC)c(OC)c3)cn4C3CC3)CC2)cc1OC	n
CO[C@@H]1/C=C\C=C(/C)C(=O)NC2=CC(=O)C(NCCN(C)C)=C(C[C@@H](C)C[C@@H](OC)[C@@H](O)[C@H](C)/C=C(\C)[C@H]1OC(N)=O)C2=O	y
COc1cc(C(=O)/C(C)=C/c2c[nH]c3ccccc23)cc(OC)c1OC	y
Cn1c([N+](=O)[O-])cnc1/C=C1\Oc2ccccc2C1=O	n
CSc1ccc(C2=NN(C(=O)c3ccc(F)cc3)C(c3ccc(F)cc3)C2)cc1 (centres undefined)	n
CCOC(=O)C(N)C[S][Sn]([CH3])([CH3])[Cl] (centres undefined)	n
Cc1cc(C)c([O-])c(CN(C)CCN(C)Cc2cc(C)cc(C)c2[O-])c1.O=C([O-])c1cccc(C(=O)[O-])n1.[Ti+4]	n
NOCC(=O)O	n
